test system: HCC 2998; assay: NCI tumour cell line growth inhibition, 48 h
Calls of active or inactive are those of the source. Cut-off read from the data, not from the text of the source: active = GI50 up to about 1.1 µM and inactive = higher.
READOUT KIND: GI50

>>> readout_value("COc1ccc(C[C@H]2NC[C@H](O)[C@H]2OC(C)=O)cc1")
"0.0229 µM (active)"

## Task Entry under review: O=C(CC(C(=O)c1cccs1)c1ccsc1)c1ccc(Cl)cc1 (stereo not given) . Reported GI50?
## Result > 100 µM (inactive)

## Task Same again, this time with CC(=O)N1C(c2[nH]c3ccccc3c2-c2ccccc2)CCN1c1ccccc1 (stereo not given)
## Result > 10 µM (inactive)

## Task Same again, this time with O=C(O)C12C3CCC(CC3)C1(C(=O)O)C1CCC2C1 (stereo not given)
## Result > 100 µM (inactive)

## Task Same again, this time with CC(C)(C)N1CC1CNC(=O)C(=O)NCC1CN1C(C)(C)C (stereo not given)
## Result 3.16 µM (inactive)

## Task Same again, this time with `N#CC(=C1C=CC(=NO)C=C1)c1ccc(Cl)cc1`
## Result 17.5 µM (inactive)

## Task Same again, this time with Cc1ccc(S(=O)(=O)n2c3c(c4ccccc42)CCN2C(=O)C(S(=O)(=O)c4ccccc4)=CCC32)cc1 (stereo not given)
## Result 0.212 µM (active)

## Task Same again, this time with `c1ccc(/C(=N/Nc2nc3ccccc3s2)C2CCCCC2)nc1`
## Result < 0.01 µM (active)

## Task Same again, this time with C=C1C(=O)O[C@H]2C[C@@H]1C(=O)CC(C)CCCC(C)=CCC[C@@]2(C)O (stereo not given in full)
## Result > 25 µM (inactive)

## Task Same again, this time with `CN(C)c1ccc(/C=C2\CNC/C(=C\c3ccc(N(C)C)cc3)C2=O)cc1`
## Result 29.3 µM (inactive)
